The values you see were collected from the supplement of paper PMC10567573.

B1: AUP1 (parent)
chain: EGLLRFSSWPFSIQDVVQPLTLQV

- Variants of: B1
- Assay overview: protein stability index of a GFP-peptide fusion (GPS, HEK-293T) (PSI 1-6); higher = more stable;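 further: lentivirally expressed fusions sorted by FACS into six bins by GFP to DsRed ratio, PSI derived from sequencing read proportions per bin multiplied by bin number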
- Settings: c terminus: a fixed tail appended
Decision: protein stability index >= 2 yields t, all other cases yield f.

Worked examples follow.
Sequence record	Classification
EGLLRFSSWPFSIQDVVQPPTLQV	f
EGLLRFSSWPQSIQDVVQPLTLQV	f
EGLLRFSSKPFSIQDVVQPLTLQV	t

Entry EGLLRFSSWPFSIQDVDQPLTLQV : is its protein stability index no less than 2?
f

Entry EGLLRFNSWPFSIQDVVQPLTLQV : is its protein stability index no less than 2?
t

Entry EGLLRFSSWPFSIQDVVQPLTLQI : is its protein stability index no less than 2?
t

Entry EGLGRFSSWPFSIQDVVQPLTLQV : is its protein stability index no less than 2?
t

Entry EGLLRFSSWPFSIQDVVQPLTLQG : is its protein stability index no less than 2?
t

Entry EGLLRFSSWAFSIQDVVQPLTLQV : is its protein stability index no less than 2?
t
